# SYSTEM_NAME: NaV1.7 (Homo sapiens (Human), UniProt Q15858)
# Sequence (Q15858 other isoform, or with tags, fused parts or gaps): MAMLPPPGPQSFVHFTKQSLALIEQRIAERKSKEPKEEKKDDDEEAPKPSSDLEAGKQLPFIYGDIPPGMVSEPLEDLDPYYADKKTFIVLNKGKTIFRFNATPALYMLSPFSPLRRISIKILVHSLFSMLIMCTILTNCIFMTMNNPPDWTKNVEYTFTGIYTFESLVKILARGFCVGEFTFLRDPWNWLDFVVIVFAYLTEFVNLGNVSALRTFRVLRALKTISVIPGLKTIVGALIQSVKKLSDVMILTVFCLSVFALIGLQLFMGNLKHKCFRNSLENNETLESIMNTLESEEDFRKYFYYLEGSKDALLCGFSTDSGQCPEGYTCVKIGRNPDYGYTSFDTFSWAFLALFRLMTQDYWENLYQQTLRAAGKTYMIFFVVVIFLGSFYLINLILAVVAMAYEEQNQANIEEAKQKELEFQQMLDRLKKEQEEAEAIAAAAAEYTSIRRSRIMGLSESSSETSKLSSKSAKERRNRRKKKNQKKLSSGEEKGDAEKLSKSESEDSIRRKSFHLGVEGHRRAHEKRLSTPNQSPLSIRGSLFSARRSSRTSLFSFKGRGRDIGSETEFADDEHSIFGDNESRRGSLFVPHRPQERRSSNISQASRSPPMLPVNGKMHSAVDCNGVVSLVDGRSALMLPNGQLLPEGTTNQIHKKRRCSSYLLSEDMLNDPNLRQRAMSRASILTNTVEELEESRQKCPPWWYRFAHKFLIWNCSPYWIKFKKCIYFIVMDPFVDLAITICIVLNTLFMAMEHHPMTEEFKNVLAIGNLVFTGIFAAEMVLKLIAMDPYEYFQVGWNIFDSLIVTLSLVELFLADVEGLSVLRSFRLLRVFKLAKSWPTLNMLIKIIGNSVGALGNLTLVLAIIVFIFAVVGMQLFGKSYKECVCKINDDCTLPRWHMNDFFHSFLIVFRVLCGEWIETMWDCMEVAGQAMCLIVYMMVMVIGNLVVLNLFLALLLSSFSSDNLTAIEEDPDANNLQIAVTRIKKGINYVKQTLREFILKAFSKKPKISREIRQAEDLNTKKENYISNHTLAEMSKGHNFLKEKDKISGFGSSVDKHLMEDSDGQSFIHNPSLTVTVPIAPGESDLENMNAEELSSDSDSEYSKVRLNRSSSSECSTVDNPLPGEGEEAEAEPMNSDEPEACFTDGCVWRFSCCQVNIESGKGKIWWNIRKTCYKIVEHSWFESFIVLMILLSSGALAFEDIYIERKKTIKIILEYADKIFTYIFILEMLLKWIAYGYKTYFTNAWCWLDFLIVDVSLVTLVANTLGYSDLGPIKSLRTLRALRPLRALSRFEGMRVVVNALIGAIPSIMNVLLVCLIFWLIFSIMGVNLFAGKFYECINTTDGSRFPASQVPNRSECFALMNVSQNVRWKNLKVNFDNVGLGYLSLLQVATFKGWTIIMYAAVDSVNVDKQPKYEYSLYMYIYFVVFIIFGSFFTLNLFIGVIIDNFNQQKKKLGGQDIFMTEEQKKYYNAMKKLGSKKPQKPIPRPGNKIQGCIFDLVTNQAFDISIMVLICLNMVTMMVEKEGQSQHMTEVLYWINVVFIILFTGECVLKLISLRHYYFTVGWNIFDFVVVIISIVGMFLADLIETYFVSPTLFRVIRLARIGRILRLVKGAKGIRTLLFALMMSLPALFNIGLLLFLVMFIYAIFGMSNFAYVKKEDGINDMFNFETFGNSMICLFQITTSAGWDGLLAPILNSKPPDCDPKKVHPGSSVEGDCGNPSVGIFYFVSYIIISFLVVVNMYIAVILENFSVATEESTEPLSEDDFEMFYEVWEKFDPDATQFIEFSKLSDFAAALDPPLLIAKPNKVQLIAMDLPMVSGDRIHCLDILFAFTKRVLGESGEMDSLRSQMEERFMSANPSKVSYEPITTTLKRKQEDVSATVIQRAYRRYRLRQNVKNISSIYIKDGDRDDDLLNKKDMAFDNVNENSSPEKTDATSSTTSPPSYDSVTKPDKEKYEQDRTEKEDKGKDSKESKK
# Sequence (Q07699 19-218 partner): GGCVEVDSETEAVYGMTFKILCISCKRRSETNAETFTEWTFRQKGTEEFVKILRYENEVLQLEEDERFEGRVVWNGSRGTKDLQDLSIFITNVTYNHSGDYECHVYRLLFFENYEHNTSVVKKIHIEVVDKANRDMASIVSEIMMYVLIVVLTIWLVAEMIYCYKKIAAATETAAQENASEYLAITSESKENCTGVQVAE
# EXPERIMENTAL_DETAILS: Patch voltage clamp electrophysiology (EP), affinity for the inactivated state of Nav1.7
# Format: cell-based
# EXPERIMENTAL_SETUP: HEK-293 cells expressing human Nav1.7 with β1 subunit, read-out: NaV1.7 (IC50 class)
pIC50: −log10 of the molar value.
RECORDED_METRIC: pIC50

compound="O=S(=O)(Nc1ncns1)c1cc(F)c(OC[C@@H]2CCNC[C@H]2c2ccc(F)cc2)cc1F (relative stereo)" recorded_metric=pIC50 value_reported="> 7.00"
compound="O=S(=O)(Nc1ncns1)c1cc(F)c(OC[C@@H]2CNCC[C@H]2c2ccc(F)cc2)cc1F [Example 46]" recorded_metric=pIC50 value_reported="6.00 to 7.00"
compound="O=S(=O)(Nc1cccnn1)c1cc(F)c(OC[C@@H]2CNCC[C@H]2c2ccc(Cl)cc2)cc1F (relative stereo)" recorded_metric=pIC50 value_reported="6.00 to 7.00"
compound="O=S(=O)(Nc1ncns1)c1cc(F)c(OC[C@@H]2CNCC[C@H]2c2ccc(F)cc2)cc1F (relative stereo) [Example 45]" recorded_metric=pIC50 value_reported="> 7.00"
compound="O=S(=O)(Nc1ncns1)c1cc(F)c(OC[C@@H]2CCCC[C@H]2c2ccc(F)cc2)cc1F (relative stereo)" recorded_metric=pIC50 value_reported="6.00 to 7.00"
compound=O=S(=O)(Nc1ncns1)c1cc(F)c(OC[C@H]2CNCC[C@@H]2c2ccc(Cl)cc2)cc1F recorded_metric=pIC50 value_reported="> 7.00"
compound="Cc1cc(NS(=O)(=O)c2cc(F)c(OC[C@@H]3CNCC[C@H]3c3ccc(Cl)cc3)cc2F)no1 (relative stereo)" recorded_metric=pIC50 value_reported="5.00 to 6.00"
compound="O=S(=O)(Nc1ncns1)c1cc(F)c(OCC2(F)CNCCC2c2ccc(F)cc2)cc1F (stereo not shown)" recorded_metric=pIC50 value_reported="> 7.00"
compound="O=S(=O)(Nc1ncns1)c1cc(F)c(OC[C@@H]2CNC[C@H]2c2ccc(Cl)cc2)cc1F (relative stereo)" recorded_metric=pIC50 value_reported="> 7.00"
compound="O=S(=O)(Nc1ncns1)c1ccc(OC[C@@H]2CNCC[C@H]2c2ccc(Cl)cc2)c(F)c1 (relative stereo)" recorded_metric=pIC50 value_reported="> 7.00"
